- target-under-test: T1, 4H2717-bH
- T1 chain: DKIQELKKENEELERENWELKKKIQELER
- experiment-summary: two-hybrid library CCNG1;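 also: natural log of median RNA to DNA barcode read ratio; higher means stronger binding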
property: interaction score
Give your answer as a number; write no unit.

DKIQELKKEIEELERENWELKKENQELKR [4H2588-bH] | -0.116
DEIQELEKEIEELKRKNWELKKEIQELER [4H121-bH] | 0.068
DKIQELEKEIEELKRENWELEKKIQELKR [4H2134-bH] | 1.07

Then this binder:
# binder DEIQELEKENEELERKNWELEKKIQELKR [4H182-bH] ; its interaction score = -0.508
